Tested on: Hepacivirus hominis
test protocol: Inhibition of recombinant HCV NS5B RNA dependent RNA polymerase activity assessed as reduction in [alpha-32P]UTP incorporation using poly(rA)-U12 as template/primer at 50 uM incubated for 1 hr by liquid scintillation counting method relative to control
Activity calls are given as the source filed them. The calls are words filed in the database; no cut-off is given here.
measured quantity: inhibition

Record excerpt, results attached:
Oc1ccc2c(c1)CCc1c-2oc2cc(O)ccc12 = inactive
COc1ccc2c(c1)CCc1c-2oc2cc(O)ccc12 = 36.2%
Oc1ccc2c3c(oc2c1)-c1ccccc1CC3 = inactive
c1ccc2c(c1)CCc1c-2oc2ccccc12 = inactive

Next:
## Input Please report the measured inhibition for Oc1ccc2c(c1)-c1oc3cc(O)ccc3c1CC2
## Output 33.1%

====

test protocol: Cytotoxicity against human Huh7.5 cells assessed as reduction in cell viability after 48 hrs by MTS assay
Format: cell-based, Huh-7
# strict inequality: CC50 at 48 h < 100 µM yields class 1, everything else yields class 0

## Input Is it true that CC50 at 48 h reported for Oc1ccc2c3c(oc2c1)-c1cccc(O)c1CC3 is less than 100 µM?
## Output class 1

## Input Is it true that CC50 at 48 h reported for Oc1ccc2c(c1)-c1oc3cc(O)ccc3c1CC2 is less than 100 µM?
## Output class 0

## Input Is it true that CC50 at 48 h reported for COc1ccc2c(c1)CCc1c-2oc2cc(O)ccc12 is less than 100 µM?
## Output class 0

## Input Is it true that CC50 at 48 h reported for c1ccc2c(c1)CCc1c-2oc2ccccc12 is less than 100 µM?
## Output class 0

## Input Is it true that CC50 at 48 h reported for Oc1ccc2c3c(oc2c1)-c1cc(O)c(O)cc1CC3 is less than 100 µM?
## Output class 0

## Input Is it true that CC50 at 48 h reported for Oc1ccc2c(c1)CCc1c-2oc2cc(O)ccc12 is less than 100 µM?
## Output class 1

## Input Is it true that CC50 at 48 h reported for Oc1ccc2c(c1)-c1oc3ccccc3c1CC2 is less than 100 µM?
## Output class 1

====

Tested on: Hepacivirus hominis
test protocol: Inhibition of recombinant HCV NS5B RNA dependent RNA polymerase activity assessed as reduction in [alpha-32P]UTP incorporation using poly(rA)-U12 as template/primer at 50 uM incubated for 1 hr by liquid scintillation counting method relative to control
Please respond with reported inhibition for every item in the list.

## Input Please report the measured inhibition for Oc1ccc2c3c(oc2c1)-c1cccc(O)c1CC3
## Output 38%

## Input Please report the measured inhibition for Oc1ccc2c(c1)-c1oc3ccccc3c1CC2
## Output 38.5%
